System: Chinese hamster ovary cells
Assay: Uptake of glycosides by Chinese hamster ovary cells, fluorescence assay
Details: relative to Xylβ-0-2-naphthol 1.0 unit
Record form. Attribute: Uptake. Fill in for each entry.

smiles code: OC[C@H]1O[C@@H](Oc2ccc3ccccc3c2)[C@H](O)[C@@H](O)[C@H]1O
Uptake: 0.3 unit of fluorescence

smiles code: O[C@@H]1[C@@H](O)[C@H](Oc2ccc3ccccc3c2)OC[C@H]1O
Uptake: 1.0 unit of fluorescence

smiles code: O[C@@H]1[C@@H](O)[C@@H](Oc2ccc3ccccc3c2)OC[C@@H]1O
Uptake: 0.8 unit of fluorescence

Form: molecule = OC[C@H]1O[C@@H](Oc2cc3ccccc3c3ccccc23)[C@H](O)[C@@H](O)[C@H]1O ; Uptake = 4.2 unit of fluorescence
